Molecular target: human α2β1 integrin on human platelets (human, UniProt P17301 30-1181; P05556 21-798)
Sequence (P17301 30-1181 limits assumed, chain 1 of 2): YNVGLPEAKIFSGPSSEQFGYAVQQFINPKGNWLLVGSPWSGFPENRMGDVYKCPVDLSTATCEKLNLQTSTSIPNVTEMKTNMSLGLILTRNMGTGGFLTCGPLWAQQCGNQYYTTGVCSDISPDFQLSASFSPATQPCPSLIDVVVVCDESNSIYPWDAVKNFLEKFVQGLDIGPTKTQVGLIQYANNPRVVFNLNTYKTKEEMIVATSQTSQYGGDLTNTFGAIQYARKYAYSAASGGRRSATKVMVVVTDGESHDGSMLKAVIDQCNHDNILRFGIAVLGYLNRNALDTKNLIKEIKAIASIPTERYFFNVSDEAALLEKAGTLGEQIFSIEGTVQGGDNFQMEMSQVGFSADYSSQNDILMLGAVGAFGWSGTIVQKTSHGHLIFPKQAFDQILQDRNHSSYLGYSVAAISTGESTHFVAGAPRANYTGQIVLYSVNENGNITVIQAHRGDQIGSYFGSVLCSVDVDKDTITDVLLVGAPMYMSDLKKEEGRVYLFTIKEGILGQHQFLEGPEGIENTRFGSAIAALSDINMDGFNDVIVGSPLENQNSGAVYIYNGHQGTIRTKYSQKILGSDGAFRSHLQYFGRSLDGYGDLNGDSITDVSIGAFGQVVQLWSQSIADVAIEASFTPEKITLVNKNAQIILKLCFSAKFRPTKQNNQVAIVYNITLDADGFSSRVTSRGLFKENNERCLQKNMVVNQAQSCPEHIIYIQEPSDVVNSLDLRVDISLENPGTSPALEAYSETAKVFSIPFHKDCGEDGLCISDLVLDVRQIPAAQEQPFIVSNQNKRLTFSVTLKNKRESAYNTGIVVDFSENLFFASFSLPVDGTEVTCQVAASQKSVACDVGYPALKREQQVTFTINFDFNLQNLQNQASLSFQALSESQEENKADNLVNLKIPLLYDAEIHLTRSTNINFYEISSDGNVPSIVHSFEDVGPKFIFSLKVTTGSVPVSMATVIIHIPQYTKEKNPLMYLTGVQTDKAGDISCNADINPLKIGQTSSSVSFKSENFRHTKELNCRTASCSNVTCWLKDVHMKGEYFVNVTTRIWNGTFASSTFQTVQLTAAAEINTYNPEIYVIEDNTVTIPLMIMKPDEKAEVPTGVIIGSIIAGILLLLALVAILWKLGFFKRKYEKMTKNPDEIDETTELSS
Sequence (P05556 21-798 limits assumed, chain 2 of 2): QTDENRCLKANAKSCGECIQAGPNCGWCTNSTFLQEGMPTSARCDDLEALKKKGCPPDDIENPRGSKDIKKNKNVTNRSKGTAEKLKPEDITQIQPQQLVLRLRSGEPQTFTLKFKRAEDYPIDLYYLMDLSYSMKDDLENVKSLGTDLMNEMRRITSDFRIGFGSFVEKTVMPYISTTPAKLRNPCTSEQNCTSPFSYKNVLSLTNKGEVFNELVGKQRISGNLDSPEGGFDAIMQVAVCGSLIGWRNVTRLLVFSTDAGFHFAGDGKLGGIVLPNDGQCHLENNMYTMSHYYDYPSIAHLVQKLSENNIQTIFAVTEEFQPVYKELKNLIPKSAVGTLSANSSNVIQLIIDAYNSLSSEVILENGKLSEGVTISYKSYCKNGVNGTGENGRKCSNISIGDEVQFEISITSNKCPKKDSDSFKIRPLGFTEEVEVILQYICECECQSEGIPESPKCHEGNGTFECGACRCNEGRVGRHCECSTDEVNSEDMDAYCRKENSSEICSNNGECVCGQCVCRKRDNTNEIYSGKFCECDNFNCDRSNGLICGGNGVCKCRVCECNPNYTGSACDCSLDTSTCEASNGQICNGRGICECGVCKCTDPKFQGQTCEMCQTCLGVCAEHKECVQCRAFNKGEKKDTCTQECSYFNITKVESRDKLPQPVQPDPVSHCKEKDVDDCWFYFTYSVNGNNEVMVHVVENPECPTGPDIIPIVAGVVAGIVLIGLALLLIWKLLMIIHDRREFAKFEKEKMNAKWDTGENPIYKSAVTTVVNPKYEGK
Experiment: cell-based or functional assay
readoutType: Inhibition of binding of washed platelets to collagen, IC50 (µg/mL)

>  <binder>
humanized anti-α2-integrin mAb LC5/HC7 (antibody, IgG4, V domains shown) VH: QVQLVQSGAEVKKPGASVKVSCKASGYTFTSYWMNWVRQAPGQGLEWIGRIDPSDSETHYAQKFQGRATLTVDKSTSTAYMELSSLRSEDTAVYYCAKVGRGYFDYWGQGTLVTVSS VL: NIVLTQSPASLAVSPGQRATITCRASESVESYGNSFIYWYQQKPGQPPKLLIYLASNLASGVPARFSGSGSRTDFTLTINPVEADDTANYYCQQNNEDPYTFGGGTKLEIK

>  <observedMeasurement>
0.031

$$$$
>  <binder>
humanized anti-α2-integrin mAb LC1/HC1 (antibody, IgG4, V domains shown) VH: QVQLHQPGAELVKPGAPVKLSCKASGYTFTSYWMNWVKQRPGQGLEWIGRIDPSDSETHYNQKFKDRATLTVDKSSSTAYIQLSSLTSEDSAVYYCAKVGRGYFDYWGQGTTLTVVS VL: NIVLTQSPSSLAVSVGQRATISCRASESVESYGNSFIYWYQQKPGKAPKLLIYLASNLASGVPARFSGSGSRTDFTLTIDPVQADDAATYYCQQNNEDPYTFGGGTKLEIK

>  <observedMeasurement>
0.021

$$$$
>  <binder>
humanized anti-α2-integrin mAb LC4/HC5 (antibody, IgG4, V domains shown) VH: QVQLHQPGAELVKPGASVKLSCKASGYTFTSYWMNWVKQRPGRGLEWIGRIDPSESETHYNQKFKDKATLTVDKSSSTAYIQLSSLTSEDSAVYYCAKVGRGYFDYWGQGTTLTVVS VL: NIVLTQSPSSLSVSVGQRATISCRASESVESYGQSFIYWYQQKPGQAPKLLIYLASNLASGVPARFSGSGSRTDFTLTIDPVQAEDAATYYCQQNNEDPYTFGGGTKLEIK

>  <observedMeasurement>
0.057

$$$$
>  <binder>
humanized anti-α2-integrin mAb LC3/HC4 (antibody, IgG4, V domains shown) VH: QVQLHQPGAELVKPGASVKLSCKASGYTFTSYWMNWVKQRPGRGLEWIGRIDPSDSETHYNQKFKDKATLTVDKSSSTAYIQLSSLTSEDSAKYYCAKVGRGYFDYWGQGTTLTVVS VL: NIVLTQSPSSLSVSVGQRATISCRASESVESYGNSFIYWYQQKPGQAPKLLIYLASNLASGVPARFSGSGSRTDFTLTIDPVQAEDAATYYCQQNNEDPYTFGGGTKLEIK

>  <observedMeasurement>
0.016

$$$$
>  <binder>
humanized anti-α2-integrin mAb LC4/HC6 (antibody, IgG4, V domains shown) VH: QVQLHQPGAELVKPGASVKLSCKASGYTFTSYWMNWVKQRPGRGLEWIGRIDPSESETHYNQKFKDKATLTVDKSSSTAYIQLSSLTSEDSAKYYCAKVGRGYFDYWGQGTTLTVVS VL: NIVLTQSPSSLSVSVGQRATISCRASESVESYGQSFIYWYQQKPGQAPKLLIYLASNLASGVPARFSGSGSRTDFTLTIDPVQAEDAATYYCQQNNEDPYTFGGGTKLEIK

>  <observedMeasurement>
0.068

$$$$
